system: CP252; test: qHTS profiling for inhibitors of Plasmodium falciparum proliferation (AID 504749); also: nearly all actives have a fitted effect of over 60% in size; conditions: P. falciparum in erythrocytes, SYBR Green DNA, 72 h; series mostly up to 28.7 µM
Results filed as inconclusive are left out. Activity calls are given as the source filed them. Calls follow the shape of the dose curve; as a rule, active = well fitted inhibition curve with a large enough effect; inconclusive = small, poorly fitted or top-dose-only effect; inactive = flat fitted curve, though single readings scatter.
Bench note: report the call from active, inactive

Some solved entries appear below for comparison.
COC(=O)[C@@H]1[C@@H]2C[C@H]3c4[nH]c5ccccc5c4CCN3C[C@@H]2CC[C@@H]1O	inactive
O=C(CC1NCCC[C@H]1O)Cn1cnc2cc(Br)c(Cl)cc2c1=O (some centres undefined)	active
CC(C)(O)c1ccccc1CC[C@H](SCC1(CC(=O)O)CC1)c1cccc(/C=C/c2ccc3ccc(Cl)cc3n2)c1	inactive

Ask: What call does the record list for C[C@@H](C(=O)O)c1ccc(-c2ccccc2)c(F)c1 ?
Reply: inactive
